system: ATP; assay: switch fluorescence ratio, 500 uM ATP over buffer (Cy3 cluster intensity, sum of 5 cycles each) (fold (ratio)); higher = stronger signal-on switching upon ATP binding; sequences stand for … in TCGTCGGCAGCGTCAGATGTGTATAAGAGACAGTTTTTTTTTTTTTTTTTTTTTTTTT…TC; details: aptamer strand: ATP DNA aptamer (quencher-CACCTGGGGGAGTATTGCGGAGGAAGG + anchor), 100 nM annealed; ATP concentration: 500 uM

POLYMER SEQUENCE: GGTGTGTGAG
ASSAYED TARGET: ATP
switch fluorescence ratio: 0.965
--
POLYMER SEQUENCE: AGCGTTTGGG
ASSAYED TARGET: ATP
switch fluorescence ratio: 1.03
--
POLYMER SEQUENCE: TATTCCGCC
ASSAYED TARGET: ATP
switch fluorescence ratio: 2.29
--
POLYMER SEQUENCE: CGGTGGGTGT
ASSAYED TARGET: ATP
switch fluorescence ratio: 0.931
--
POLYMER SEQUENCE: GCTTATCAGC
ASSAYED TARGET: ATP
switch fluorescence ratio: 0.991
--
POLYMER SEQUENCE: ATAGACTTCT
ASSAYED TARGET: ATP
switch fluorescence ratio: 0.997
--
POLYMER SEQUENCE: GGTAGGGTGG
ASSAYED TARGET: ATP
switch fluorescence ratio: 1.02
--
POLYMER SEQUENCE: TGCTTGCAAA
ASSAYED TARGET: ATP;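 also: ATP exposure 15 min at 22 °C before imaging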
switch fluorescence ratio: 1.06
--
POLYMER SEQUENCE: AGGGGGCGCG
ASSAYED TARGET: ATP;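 also: ATP exposure 15 min at 22 °C before imaging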
switch fluorescence ratio: 1.01
--
POLYMER SEQUENCE: TAAAAATATG
ASSAYED TARGET: ATP;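 also: ATP exposure 15 min at 22 °C before imaging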
switch fluorescence ratio: 0.991
--
POLYMER SEQUENCE: CATGTTAGTA
ASSAYED TARGET: ATP;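 also: ATP exposure 15 min at 22 °C before imaging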
switch fluorescence ratio: 1.02
--
POLYMER SEQUENCE: CCTGTTTCAG
ASSAYED TARGET: ATP;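 also: ATP exposure 15 min at 22 °C before imaging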
switch fluorescence ratio: 1.05
--
POLYMER SEQUENCE: CGGGTTTAAA
ASSAYED TARGET: ATP;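 also: ATP exposure 15 min at 22 °C before imaging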
switch fluorescence ratio: 1
--
POLYMER SEQUENCE: AATCTTGTGT
ASSAYED TARGET: ATP;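 also: ATP exposure 15 min at 22 °C before imaging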
switch fluorescence ratio: 0.985
--
POLYMER SEQUENCE: ACTCTGGGAG
ASSAYED TARGET: ATP;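 also: ATP exposure 15 min at 22 °C before imaging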
switch fluorescence ratio: 1.03
--
POLYMER SEQUENCE: GAGTTAAAGT
ASSAYED TARGET: ATP;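 also: ATP exposure 15 min at 22 °C before imaging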
switch fluorescence ratio: 1.01
--
POLYMER SEQUENCE: TTATTGATCT
ASSAYED TARGET: ATP;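 also: ATP exposure 15 min at 22 °C before imaging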
switch fluorescence ratio: 1
--
POLYMER SEQUENCE: TTAAAATGGG
ASSAYED TARGET: ATP;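 also: ATP exposure 15 min at 22 °C before imaging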
switch fluorescence ratio: 1.01
--
POLYMER SEQUENCE: ATCGGATGGC
ASSAYED TARGET: ATP;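 also: ATP exposure 15 min at 22 °C before imaging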
switch fluorescence ratio: 1.06
--
POLYMER SEQUENCE: TAGGGCCGTG
ASSAYED TARGET: ATP;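 also: ATP exposure 15 min at 22 °C before imaging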
switch fluorescence ratio: 0.977
--
POLYMER SEQUENCE: TGGCAGCAGG
ASSAYED TARGET: ATP;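 also: ATP exposure 15 min at 22 °C before imaging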
switch fluorescence ratio: 1
--
POLYMER SEQUENCE: AAGGGCCCTA
ASSAYED TARGET: ATP;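 also: ATP exposure 15 min at 22 °C before imaging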
switch fluorescence ratio: 0.994
--
POLYMER SEQUENCE: TAAAACGCCC
ASSAYED TARGET: ATP;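 also: ATP exposure 15 min at 22 °C before imaging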
switch fluorescence ratio: 1.15
--
POLYMER SEQUENCE: ATAAGTTGCT
ASSAYED TARGET: ATP;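 also: ATP exposure 15 min at 22 °C before imaging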
switch fluorescence ratio: 0.968
--
POLYMER SEQUENCE: GAGCGGGGTG
ASSAYED TARGET: ATP;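 also: ATP exposure 15 min at 22 °C before imaging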
switch fluorescence ratio: 1
--
POLYMER SEQUENCE: GGTGTCAGGG
ASSAYED TARGET: ATP;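 also: ATP exposure 15 min at 22 °C before imaging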
switch fluorescence ratio: 0.989
--
POLYMER SEQUENCE: GGCTCATCA
ASSAYED TARGET: ATP;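 also: ATP exposure 15 min at 22 °C before imaging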
switch fluorescence ratio: 1.01
--
POLYMER SEQUENCE: GATACCCTTG
ASSAYED TARGET: ATP;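 also: ATP exposure 15 min at 22 °C before imaging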
switch fluorescence ratio: 1.01
--
POLYMER SEQUENCE: CAGTGTTGGG
ASSAYED TARGET: ATP;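 also: ATP exposure 15 min at 22 °C before imaging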
switch fluorescence ratio: 1
--
POLYMER SEQUENCE: GGGAGCATTG
ASSAYED TARGET: ATP;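 also: ATP exposure 15 min at 22 °C before imaging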
switch fluorescence ratio: 1.02
--
POLYMER SEQUENCE: GAGTGAGGTT
ASSAYED TARGET: ATP;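 also: ATP exposure 15 min at 22 °C before imaging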
switch fluorescence ratio: 0.955
--
POLYMER SEQUENCE: CGTGTATGG
ASSAYED TARGET: ATP;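 also: ATP exposure 15 min at 22 °C before imaging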
switch fluorescence ratio: 1.02
--
POLYMER SEQUENCE: AATGCGTATG
ASSAYED TARGET: ATP;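 also: ATP exposure 15 min at 22 °C before imaging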
switch fluorescence ratio: 1.02
--
POLYMER SEQUENCE: TGCAGAAGGT
ASSAYED TARGET: ATP;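 also: ATP exposure 15 min at 22 °C before imaging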
switch fluorescence ratio: 0.992
--
POLYMER SEQUENCE: TTGTGTGGGT
ASSAYED TARGET: ATP;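 also: ATP exposure 15 min at 22 °C before imaging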
switch fluorescence ratio: 0.993
--
POLYMER SEQUENCE: TTGGGTTGCT
ASSAYED TARGET: ATP;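 also: ATP exposure 15 min at 22 °C before imaging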
switch fluorescence ratio: 1.12
--
POLYMER SEQUENCE: TTTCTGACGG
ASSAYED TARGET: ATP;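 also: ATP exposure 15 min at 22 °C before imaging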
switch fluorescence ratio: 1.35
--
POLYMER SEQUENCE: GGTGGGAACA
ASSAYED TARGET: ATP;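 also: ATP exposure 15 min at 22 °C before imaging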
switch fluorescence ratio: 0.992
--
POLYMER SEQUENCE: GTATTAGGAA
ASSAYED TARGET: ATP;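 also: ATP exposure 15 min at 22 °C before imaging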
switch fluorescence ratio: 0.985
--
POLYMER SEQUENCE: TACCCAGATT
ASSAYED TARGET: ATP;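 also: ATP exposure 15 min at 22 °C before imaging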
switch fluorescence ratio: 1.66
--
POLYMER SEQUENCE: AAGGTGTGCG
ASSAYED TARGET: ATP;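 also: ATP exposure 15 min at 22 °C before imaging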
switch fluorescence ratio: 1.02
--
POLYMER SEQUENCE: GTGTCGGGGT
ASSAYED TARGET: ATP;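 also: ATP exposure 15 min at 22 °C before imaging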
switch fluorescence ratio: 1
--
POLYMER SEQUENCE: TCTTAGGCGT
ASSAYED TARGET: ATP;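 also: ATP exposure 15 min at 22 °C before imaging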
switch fluorescence ratio: 1.02
--
POLYMER SEQUENCE: TATAACATGT
ASSAYED TARGET: ATP;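 also: ATP exposure 15 min at 22 °C before imaging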
switch fluorescence ratio: 0.997
--
POLYMER SEQUENCE: TTTGAGAAAT
ASSAYED TARGET: ATP;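 also: ATP exposure 15 min at 22 °C before imaging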
switch fluorescence ratio: 0.994
--
POLYMER SEQUENCE: TGGTTGTTT
ASSAYED TARGET: ATP;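 also: ATP exposure 15 min at 22 °C before imaging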
switch fluorescence ratio: 0.986
--
POLYMER SEQUENCE: ACGGGGTGGA
ASSAYED TARGET: ATP;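 also: ATP exposure 15 min at 22 °C before imaging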
switch fluorescence ratio: 1
--
POLYMER SEQUENCE: ACTATTACGG
ASSAYED TARGET: ATP;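 also: ATP exposure 15 min at 22 °C before imaging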
switch fluorescence ratio: 1.18
--
POLYMER SEQUENCE: GGGTATTGTA
ASSAYED TARGET: ATP;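 also: ATP exposure 15 min at 22 °C before imaging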
switch fluorescence ratio: 0.999
--
POLYMER SEQUENCE: GCCAACGGGG
ASSAYED TARGET: ATP;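 also: ATP exposure 15 min at 22 °C before imaging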
switch fluorescence ratio: 1
--
POLYMER SEQUENCE: ACTAGAGGAC
ASSAYED TARGET: ATP;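 also: ATP exposure 15 min at 22 °C before imaging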
switch fluorescence ratio: 1
--
POLYMER SEQUENCE: AAAACCGTGT
ASSAYED TARGET: ATP;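 also: ATP exposure 15 min at 22 °C before imaging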
switch fluorescence ratio: 1.05
--
POLYMER SEQUENCE: CATTTGGGTA
ASSAYED TARGET: ATP;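 also: ATP exposure 15 min at 22 °C before imaging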
switch fluorescence ratio: 1.01
--
POLYMER SEQUENCE: AACCAGTGCG
ASSAYED TARGET: ATP;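 also: ATP exposure 15 min at 22 °C before imaging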
switch fluorescence ratio: 1.08
--
POLYMER SEQUENCE: TATTTACAGG
ASSAYED TARGET: ATP;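 also: ATP exposure 15 min at 22 °C before imaging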
switch fluorescence ratio: 1.03
--
POLYMER SEQUENCE: AGGAAATAGT
ASSAYED TARGET: ATP;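 also: ATP exposure 15 min at 22 °C before imaging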
switch fluorescence ratio: 1.05
--
POLYMER SEQUENCE: CGGTTGTGAG
ASSAYED TARGET: ATP;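 also: ATP exposure 15 min at 22 °C before imaging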
switch fluorescence ratio: 1.01
--
POLYMER SEQUENCE: CGTTTCGTGC
ASSAYED TARGET: ATP;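 also: ATP exposure 15 min at 22 °C before imaging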
switch fluorescence ratio: 0.992
--
POLYMER SEQUENCE: GGGTTTGCAC
ASSAYED TARGET: ATP;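 also: ATP exposure 15 min at 22 °C before imaging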
switch fluorescence ratio: 1.03
--
POLYMER SEQUENCE: GATGCAAAGG
ASSAYED TARGET: ATP;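 also: ATP exposure 15 min at 22 °C before imaging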
switch fluorescence ratio: 1.13
--
POLYMER SEQUENCE: GGGGTATATG
ASSAYED TARGET: ATP;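 also: ATP exposure 15 min at 22 °C before imaging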
switch fluorescence ratio: 0.995
--
POLYMER SEQUENCE: TCGGGGGTAT
ASSAYED TARGET: ATP;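 also: ATP exposure 15 min at 22 °C before imaging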
switch fluorescence ratio: 1.2
--
POLYMER SEQUENCE: TCAACTGGTG
ASSAYED TARGET: ATP;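 also: ATP exposure 15 min at 22 °C before imaging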
switch fluorescence ratio: 1.35
--
POLYMER SEQUENCE: TTTTGGGTAC
ASSAYED TARGET: ATP;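 also: ATP exposure 15 min at 22 °C before imaging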
switch fluorescence ratio: 0.995
--
POLYMER SEQUENCE: GGGATCATGT
ASSAYED TARGET: ATP;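 also: ATP exposure 15 min at 22 °C before imaging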
switch fluorescence ratio: 0.98
--
POLYMER SEQUENCE: GGCCTCCTGT
ASSAYED TARGET: ATP;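 also: ATP exposure 15 min at 22 °C before imaging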
switch fluorescence ratio: 1.02
--
POLYMER SEQUENCE: TGAAAAAGTT
ASSAYED TARGET: ATP;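 also: ATP exposure 15 min at 22 °C before imaging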
switch fluorescence ratio: 1.32
--
POLYMER SEQUENCE: CGTTTTGATT
ASSAYED TARGET: ATP;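 also: ATP exposure 15 min at 22 °C before imaging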
switch fluorescence ratio: 0.997
--
POLYMER SEQUENCE: GACTAGAGGG
ASSAYED TARGET: ATP;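 also: ATP exposure 15 min at 22 °C before imaging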
switch fluorescence ratio: 0.99
--
POLYMER SEQUENCE: ATCGGGTCGG
ASSAYED TARGET: ATP;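 also: ATP exposure 15 min at 22 °C before imaging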
switch fluorescence ratio: 1.01
--
POLYMER SEQUENCE: CTAACTGGTG
ASSAYED TARGET: ATP;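 also: ATP exposure 15 min at 22 °C before imaging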
switch fluorescence ratio: 1.2
--
POLYMER SEQUENCE: ATAAGTGTTA
ASSAYED TARGET: ATP;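 also: ATP exposure 15 min at 22 °C before imaging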
switch fluorescence ratio: 0.99
--
POLYMER SEQUENCE: AAGGTTGATA
ASSAYED TARGET: ATP;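 also: ATP exposure 15 min at 22 °C before imaging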
switch fluorescence ratio: 0.988
--
POLYMER SEQUENCE: AGAGGTTATT
ASSAYED TARGET: ATP;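 also: ATP exposure 15 min at 22 °C before imaging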
switch fluorescence ratio: 0.999
--
POLYMER SEQUENCE: AACGTGCCTG
ASSAYED TARGET: ATP;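 also: ATP exposure 15 min at 22 °C before imaging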
switch fluorescence ratio: 0.979
--
POLYMER SEQUENCE: GGGTTGTGAA
ASSAYED TARGET: ATP;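 also: ATP exposure 15 min at 22 °C before imaging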
switch fluorescence ratio: 0.994
--
POLYMER SEQUENCE: CTTTTATTTT
ASSAYED TARGET: ATP;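 also: ATP exposure 15 min at 22 °C before imaging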
switch fluorescence ratio: 1.03
--
POLYMER SEQUENCE: ATTGAGGGGG
ASSAYED TARGET: ATP;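 also: ATP exposure 15 min at 22 °C before imaging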
switch fluorescence ratio: 1.04
--
POLYMER SEQUENCE: GATGCAGTTT
ASSAYED TARGET: ATP;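 also: ATP exposure 15 min at 22 °C before imaging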
switch fluorescence ratio: 1.03
--
POLYMER SEQUENCE: ATTTCGTGGT
ASSAYED TARGET: ATP;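 also: ATP exposure 15 min at 22 °C before imaging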
switch fluorescence ratio: 0.976
--
POLYMER SEQUENCE: ATAGTAGGGG
ASSAYED TARGET: ATP;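 also: ATP exposure 15 min at 22 °C before imaging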
switch fluorescence ratio: 0.994
--
POLYMER SEQUENCE: GATTTGTGTG
ASSAYED TARGET: ATP;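 also: ATP exposure 15 min at 22 °C before imaging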
switch fluorescence ratio: 0.978
--
POLYMER SEQUENCE: AAAGGGGGCG
ASSAYED TARGET: ATP;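 also: ATP exposure 15 min at 22 °C before imaging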
switch fluorescence ratio: 0.99
--
POLYMER SEQUENCE: TTTGAATTAG
ASSAYED TARGET: ATP;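 also: ATP exposure 15 min at 22 °C before imaging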
switch fluorescence ratio: 1
--
POLYMER SEQUENCE: AGGCGATTTA
ASSAYED TARGET: ATP;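 also: ATP exposure 15 min at 22 °C before imaging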
switch fluorescence ratio: 0.976
--
POLYMER SEQUENCE: GATGAGGGGG
ASSAYED TARGET: ATP;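 also: ATP exposure 15 min at 22 °C before imaging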
switch fluorescence ratio: 1.03
